Test system: Streptococcus pneumoniae
assay: Antibacterial activity against constitutive macrolide-lincosamide-streptogramin B resistant Streptococcus pneumoniae by agar microdilution method
Assay type: functional
Entries annotated with measured log10 MIC
Note: values are log10 of MIC expressed in µg/mL.

A selection of reference data follows.
{"molecule": "CCC1OC(=O)[C@H](C)[C@@H](O[C@H]2C[C@@](C)(OC)[C@@H](OC(=O)CNC(=O)CCNCCOCCOCCNc3cc4c(cc3F)c(=O)c(C(=O)O)cn4C3CC3)[C@H](C)O2)C(C)[C@@H](O[C@@H]2O[C@H](C)C[C@H](N(C)C)[C@H]2O)[C@](C)(O)C[C@@H](C)CN(C)[C@H](C)[C@@H](O)[C@]1(C)O (single isomer, unassigned)", "recorded_result": 0.90}
{"molecule": "CCC1OC(=O)[C@H](C)[C@@H](O[C@H]2C[C@@](C)(OC)[C@@H](OC(=O)CNCCCNCCOCCNc3cc4c(=O)c(C(=O)O)cn(C5CC5)c4cc3Cl)[C@H](C)O2)C(C)[C@@H](O[C@@H]2O[C@H](C)C[C@H](N(C)C)[C@H]2O)[C@](C)(O)C[C@@H](C)CN(C)[C@H](C)[C@@H](O)[C@]1(C)O (single isomer, unassigned)", "recorded_result": -0.60}
{"molecule": "CCC1OC(=O)[C@H](C)[C@@H](O[C@H]2C[C@@](C)(OC)[C@@H](OC(=O)CNCCCNCCOCCNc3cc4c(cc3F)c(=O)c(C(=O)O)cn4C3CC3)[C@H](C)O2)C(C)[C@@H](O[C@@H]2O[C@H](C)C[C@H](N(C)C)[C@H]2O)[C@](C)(O)C[C@@H](C)CN(C)[C@H](C)[C@@H](O)[C@]1(C)O (single isomer, unassigned)", "recorded_result": 0.30}
{"molecule": "CCC1OC(=O)[C@H](C)[C@@H](O[C@H]2C[C@@](C)(OC)[C@@H](OC(=O)CNCCSc3cnc4ccccc4n3)[C@H](C)O2)C(C)[C@@H](O[C@@H]2O[C@H](C)C[C@H](N(C)C)[C@H]2O)[C@](C)(O)C[C@@H](C)CN(C)[C@H](C)[C@@H](O)[C@]1(C)O (single isomer, unassigned)", "recorded_result": 1.20}

As a next step, examine the molecule that follows.
**Query** # return recorded log10 MIC for entry CC[C@H]1OC(=O)[C@@H](C)[C@H](O[C@@H]2C[C@](C)(OC)[C@H](OC(=O)CNC(=O)CCNCCOCCOCCNc3cc4c(=O)c(C(=O)O)cn(C5CC5)c4cc3Cl)[C@@H](C)O2)[C@H](C)[C@H](O[C@H]2O[C@@H](C)C[C@@H](N(C)C)[C@@H]2O)[C@@](C)(O)C[C@H](C)CN(C)[C@@H](C)[C@H](O)[C@@]1(C)O (stereo in doubt)
**Result** 0.60
